# System: MDR P. aeruginosa PA 910
# Test Method Notes: microbe, parasite or virus in culture
# Type: cell-based, Pseudomonas aeruginosa
# Experimental Setup: MDR PA 910, 18 h
Peptide text beside a SMILES is read from it.
Listing of entries alongside the reported MIC against PA910 in μM (peptides, Table 4).
Measure Name: MIC against PA910 in μM (peptides, Table 4) (µM)

Compound: CC(C)[C@H](NC(=O)[C@H](Cc1c[nH]c2ccccc12)NC(=O)[C@H](CCCNC(=N)N)NC(=O)[C@H](Cc1c[nH]c2ccccc12)NC(=O)[C@H](Cc1c[nH]c2ccccc12)NC(=O)[C@H](CCCNC(=N)N)NC(=O)[C@@H](N)CCCNC(=N)N)C(=O)N[C@H](C(=O)N[C@@H](Cc1c[nH]c2ccccc12)C(N)=O)C(C)C [LOP2] (H-RRWWRWVVW-NH2)
System: MDR P. aeruginosa PA 910
Measurement: 8
--
Compound: CC[C@H](C)[C@H](NC(=O)[C@H](Cc1c[nH]c2ccccc12)NC(=O)[C@H](CCCCN)NC(=O)[C@H](CCCCN)NC(=O)[C@H](CC(C)C)NC(=O)[C@H](Cc1c[nH]c2ccccc12)NC(=O)[C@H](CCCCN)NC(=O)[C@@H](N)Cc1c[nH]c2ccccc12)C(=O)N[C@@H](CCCCN)C(N)=O [LOP5] (H-WKWLKKWIK-NH2)
System: MDR P. aeruginosa PA 910
Measurement: 8
--
Compound: CC[C@H](C)[C@H](NC(=O)[C@@H](N)Cc1ccccc1)C(=O)N[C@@H](CCCCN)C(=O)N[C@@H](CCCNC(=N)N)C(=O)N[C@@H](CCCCN)C(=O)N[C@@H](CO)C(=O)N[C@@H](CCCNC(=N)N)C(=O)N[C@@H](Cc1c[nH]c2ccccc12)C(=O)N[C@@H](Cc1c[nH]c2ccccc12)C(=O)N[C@@H](CCCCN)C(=O)N[C@@H](Cc1c[nH]c2ccccc12)C(=O)N[C@@H](CCCNC(=N)N)C(=O)N[C@H](C(N)=O)[C@@H](C)O [Indopt 6] (H-FIKRKSRWWKWRT-NH2)
System: MDR P. aeruginosa PA 910
Measurement: 8

###

Listing of entries alongside the reported MIC against PA910 in μM (peptides, Table 4).
# System: MDR P. aeruginosa PA 910
# Test Method Notes: microbe, parasite or virus in culture
# Type: cell-based, Pseudomonas aeruginosa
# Experimental Setup: MDR PA 910, 18 h
Peptide text beside a SMILES is read from it.
Measure Name: MIC against PA910 in μM (peptides, Table 4)

Compound: CC[C@H](C)[C@H](NC(=O)[C@H](CCCNC(=N)N)NC(=O)[C@H](Cc1c[nH]c2ccccc12)NC(=O)[C@H](CC(C)C)NC(=O)[C@@H](N)CCCNC(=N)N)C(=O)N[C@H](C(=O)N[C@H](C(=O)N[C@H](C(=O)N[C@@H](CCCNC(=N)N)C(=O)N[C@H](C(=O)N[C@@H](C)C(=O)N[C@@H](CCCNC(=N)N)C(N)=O)C(C)C)[C@@H](C)CC)C(C)C)C(C)C [Peptide W3] (H-RLWRIVVIRVAR-NH2)
System: MDR P. aeruginosa PA 910
Measurement: 32 µM
//
Compound: CC[C@H](C)[C@H](NC(=O)[C@H](CCCNC(=N)N)NC(=O)[C@H](C)NC(=O)[C@H](CC(C)C)NC(=O)[C@@H](N)CCCNC(=N)N)C(=O)N[C@H](C(=O)N[C@H](C(=O)N[C@H](C(=O)N[C@@H](CCCNC(=N)N)C(=O)N[C@H](C(=O)N[C@@H](C)C(=O)N[C@@H](CCCNC(=N)N)C(N)=O)C(C)C)[C@@H](C)CC)C(C)C)C(C)C [Bac2a] (H-RLARIVVIRVAR-NH2)
System: MDR P. aeruginosa PA 910
Measurement: 32 µM
//
Compound: N=C(N)NCCC[C@H](NC(=O)[C@H](CCCNC(=N)N)NC(=O)[C@@H](N)Cc1ccccc1)C(=O)N[C@@H](Cc1c[nH]c2ccccc12)C(=O)N[C@@H](Cc1c[nH]c2ccccc12)C(=O)N[C@@H](CCCCN)C(=O)N[C@@H](Cc1c[nH]c2ccccc12)C(=O)N[C@@H](Cc1ccccc1)C(=O)N[C@@H](CCCCN)C(N)=O [HHC-53] (H-FRRWWKWFK-NH2)
System: MDR P. aeruginosa PA 910
Measurement: 32 µM
//
Compound: CC[C@H](C)[C@H](NC(=O)[C@@H](N)Cc1ccccc1)C(=O)N[C@@H](CCCCN)C(=O)N[C@@H](Cc1c[nH]c2ccccc12)C(=O)N[C@@H](CCCNC(=N)N)C(=O)N[C@@H](Cc1ccccc1)C(=O)N[C@@H](CCCNC(=N)N)C(=O)N[C@@H](CCCNC(=N)N)C(=O)N[C@@H](Cc1c[nH]c2ccccc12)C(=O)N[C@@H](CCCCN)C(=O)N[C@@H](CCCCN)C(=O)N[C@@H](CCCNC(=N)N)C(=O)N[C@@H](CCCCN)C(N)=O [Indopt 4] (H-FIKWRFRRWKKRK-NH2)
System: MDR P. aeruginosa PA 910
Measurement: 4 to 8 µM
//
Compound: CC[C@H](C)[C@H](NC(=O)[C@H](CCCNC(=N)N)NC(=O)[C@H](CCCNC(=N)N)NC(=O)[C@H](CC(C)C)NC(=O)[C@@H](N)CCCNC(=N)N)C(=O)N[C@H](C(=O)N[C@H](C(=O)N[C@H](C(=O)N[C@@H](CCCNC(=N)N)C(=O)N[C@H](C(=O)N[C@@H](C)C(=O)N[C@@H](CCCNC(=N)N)C(N)=O)C(C)C)[C@@H](C)CC)C(C)C)C(C)C [Peptide R3] (H-RLRRIVVIRVAR-NH2)
System: MDR P. aeruginosa PA 910
Measurement: 32 µM
//
Compound: CC[C@H](C)[C@H](NC(=O)[C@H](CCCNC(=N)N)NC(=O)[C@H](Cc1c[nH]c2ccccc12)NC(=O)[C@H](CCCNC(=N)N)NC(=O)[C@@H](N)C(C)C)C(=O)N[C@@H](CCCNC(=N)N)C(=O)N[C@H](C(=O)N[C@@H](C)C(=O)N[C@H](C(=O)N[C@H](C(=O)N[C@@H](CCCNC(=N)N)C(=O)N[C@@H](C)C(N)=O)[C@@H](C)CC)C(C)C)C(C)C [S-W3] (H-VRWRIRVAVIRA-NH2)
System: MDR P. aeruginosa PA 910
Measurement: 16 µM

###

# Test system: MDR P. aeruginosa PA253
# Test Method Notes: microbe, parasite or virus in culture
# Format: cell-based, Pseudomonas aeruginosa
# Experimental Setup: MDR PA253, 18 h
Peptide text beside a SMILES is read from it.
Measure Name: MIC against MDR isolates of PA, PA253 (µM)

Molecule: CC[C@H](C)[C@H](NC(=O)[C@@H](N)Cc1ccccc1)C(=O)N[C@@H](CCCCN)C(=O)N[C@@H](Cc1c[nH]c2ccccc12)C(=O)N[C@@H](CCCCN)C(=O)N[C@@H](CCCCN)C(=O)N[C@@H](CCCNC(=N)N)C(=O)N[C@@H](Cc1c[nH]c2ccccc12)C(=O)N[C@@H](Cc1c[nH]c2ccccc12)C(=O)N[C@@H](CCCCN)C(=O)N[C@@H](CCCCN)C(=O)N[C@@H](CCCNC(=N)N)C(=O)N[C@H](C(N)=O)[C@@H](C)O [Indopt 1] (H-FIKWKKRWWKKRT-NH2)
Measurement: 16

###

# Tested on: MDR P. aeruginosa PA253
# Test Method Notes: microbe, parasite or virus in culture
# Format: cell-based, Pseudomonas aeruginosa
# Experimental Setup: Pseudomonas aeruginosa; conventional antibiotics; microdilution, Mueller-Hinton broth, 2–5 10^5 CFU/ml, 18 h at 37°C, read visually; at least three repeats (n = 3)
Listing of entries alongside the reported MIC.

Compound: CCN1CCN(C(=O)N[C@@H](C(=O)N[C@@H]2C(=O)N3[C@@H]2SC(C)(C)[C@@H]3C(=O)O)c2ccccc2)C(=O)C1=O
Relation: >
MIC / µM: 256
//
Compound: CC(C)(O/N=C(\C(=O)N[C@@H]1C(=O)N2C(C(=O)[O-])=C(C[n+]3ccccc3)CS[C@H]12)c1csc(N)n1)C(=O)O
Relation: >
MIC / µM: 128
//
Compound: NC[C@H]1O[C@H](O[C@H]2[C@H](O)[C@@H](O[C@H]3O[C@H](CO)[C@@H](O)[C@H](N)[C@H]3O)[C@H](N)C[C@@H]2N)[C@H](N)C[C@@H]1O
Relation: =
MIC / µM: 64
//
Compound: CC[C@H]1OC(=O)[C@H](C)[C@@H](O[C@H]2C[C@@](C)(OC)[C@@H](O)[C@H](C)O2)[C@H](C)[C@@H](O[C@@H]2O[C@H](C)C[C@H](N(C)C)[C@H]2O)[C@](C)(O)C[C@@H](C)C(=O)[C@H](C)[C@@H](O)[C@]1(C)O
Relation: =
MIC / µM: 64
//
Compound: CO/N=C(\C(=O)N[C@@H]1C(=O)N2C(C(=O)[O-])=C(C[N+]3(C)CCCC3)CS[C@H]12)c1csc(N)n1 [Cefepime]
Relation: >
MIC / µM: 128
